Values from patent EP4603105A1

# target_of_assay: GDP-bound KRAS wild-type protein (Homo sapiens)
# protocol_summary: Binding to KRAS by surface plasmon resonance (SPR), dissociation constant KD
# test_parameters: 1:1 binding model
pKd: −log10 of the molar value.
measurement_type: pKd

>  <query_smiles>
CCC[C@H]1C(=O)N[C@@H](CC(C)C)C(=O)N(CCOC)CC(=O)N(C)[C@H]2C/C=C\CCN(C2=O)[C@@H](Cc2ccc(C)cc2)C(=O)N(C)CC(=O)N[C@@H](CCc2cc(F)c(C(F)(F)F)c(F)c2)C(=O)N2C[C@H](OCC)C[C@H]2C(=O)NC2(CC(C)(C)C2)C(=O)N(C)[C@@H](C2CCCC2)C(=O)N(C)[C@H](C(=O)N(C)C)CC(=O)N1C

>  <recorded_result>
8.48

$$$$
>  <query_smiles>
CCO[C@@H]1C[C@H]2C(=O)NC3(CC(C)(C)C3)C(=O)N(C)[C@@H](C3CCCC3)C(=O)N(C)[C@H](C(=O)N(C)C)CC(=O)N(C)[C@@H]([C@H](C)OC)C(=O)N[C@@H]([C@@H](C)CC)C(=O)N(C)CC(=O)N(C)[C@H]3C/C=C\CCN(C3=O)[C@@H](Cc3ccc(C)cc3)C(=O)N(C)CC(=O)N[C@@H](CCc3cc(F)c(C(F)(F)F)c(F)c3)C(=O)N2C1

>  <recorded_result>
10.09

$$$$
>  <query_smiles>
CCCOC[C@H]1C(=O)N[C@@H]([C@@H](C)CC)C(=O)N(C2CC2)CC(=O)N(C)[C@H]2C/C=C\CCN(C2=O)[C@@H](CC2CCC(F)(F)CC2)C(=O)N(C)CC(=O)N[C@@H](CCc2ccc(C(F)(F)F)c(OC)c2)C(=O)N2C[C@@H](C)C[C@H]2C(=O)N(C)C2(CCC2)C(=O)N(C)[C@@H](C2CCCC2)C(=O)N(C)[C@H](C(=O)N(C)C)CC(=O)N1C

>  <recorded_result>
9.12

$$$$
>  <query_smiles>
CCC[C@H]1C(=O)N[C@@H](C2CCCCC2)C(=O)N(C)CC(=O)N(C)[C@H]2C/C=C\CCN(C2=O)[C@@H](Cc2ccc(C)cc2)C(=O)N(C)CC(=O)N[C@@H](CCc2ccc(C(F)(F)F)c(Cl)c2)C(=O)N2C[C@H](OCC)C[C@H]2C(=O)NC2(CC(C)(C)C2)C(=O)N(C)[C@@H](CC(C)C)C(=O)N(C)[C@H](C(=O)N(C)C)CC(=O)N1C

>  <recorded_result>
8.96

$$$$
>  <query_smiles>
CCO[C@@H]1C[C@H]2C(=O)NC3(CC(C)(C)C3)C(=O)N(C)[C@@H](C3CCCC3)C(=O)N(C)[C@H](C(=O)N(C)CC)CC(=O)N(C)[C@@H](CC(C)C)C(=O)N[C@@H]([C@@H](C)CC)C(=O)N(C)CC(=O)N(C)[C@H]3C/C=C\CCN(C3=O)[C@@H](Cc3ccc(C(F)F)cc3)C(=O)N(C)CC(=O)N[C@@H](CCc3ccc(C4CC4)c(F)c3)C(=O)N2C1

>  <recorded_result>
9.28

$$$$
>  <query_smiles>
CCC(CC)[C@H]1C(=O)N(C)[C@H](C(=O)N(C)C)CC(=O)N(C)[C@@H](COC)C(=O)N[C@@H]([C@@H](C)CC)C(=O)N2CCC[C@H]2C(=O)N(C)[C@H]2C/C=C\CCN(C2=O)[C@@H](Cc2ccc(C(F)(F)F)cc2)C(=O)N(C)CC(=O)N[C@@H](CCc2ccc(Cl)c(Cl)c2)C(=O)N2C[C@H](OC3CCC3)C[C@H]2C(=O)NC2(CC(C)(C)C2)C(=O)N1C

>  <recorded_result>
8.96

$$$$

---

# target_of_assay: GDP-bound KRAS wild-type protein (Homo sapiens, UniProt P01116)
# Sequence (P01116 1-188 isoform P01116-2): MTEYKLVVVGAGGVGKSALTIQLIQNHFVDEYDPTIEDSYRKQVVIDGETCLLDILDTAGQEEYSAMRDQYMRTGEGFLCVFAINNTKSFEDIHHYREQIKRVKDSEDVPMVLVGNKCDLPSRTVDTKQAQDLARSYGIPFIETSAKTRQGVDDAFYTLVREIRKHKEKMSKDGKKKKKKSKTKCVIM
# protocol_summary: Binding to KRAS by surface plasmon resonance (SPR), dissociation constant KD
# test_parameters: Single Cycle Kinetics
measurement_type: log10 of Kd (log10 of the value in nM)

>  <compound>
CCCC[C@H]1C(=O)N[C@@H]([C@@H](C)CC)C(=O)N(C)CC(=O)N(C)[C@H]2C/C=C\CCN(C2=O)[C@@H](Cc2ccc(C(F)(F)F)cc2)C(=O)N(C)CC(=O)N[C@@H](CCc2ccc(C(F)(F)F)c(OC)c2)C(=O)N2C[C@H](OCC)C[C@H]2C(=O)OC2(CCC2)C(=O)N(C)[C@@H](C2CCCC2)C(=O)N(C)[C@H](C(=O)N(C)C)CC(=O)N1C [PP3367]

>  <log10 of Kd>
-0.74

$$$$
>  <compound>
CCCC[C@H]1C(=O)N[C@@H]([C@@H](C)CC)C(=O)N(C)CC(=O)N(C)[C@H]2C/C=C\CCN(C2=O)[C@@H](Cc2ccc(C)cc2)C(=O)N(C)CC(=O)N[C@@H](CCc2ccc(C(F)(F)F)c(OC)c2)C(=O)N2C[C@H](OCC)C[C@H]2C(=O)OC2(CCC2)C(=O)N(C)[C@@H](C2CCCC2)C(=O)N(C)[C@H](C(=O)N(C)C)CC(=O)N1C [PP3385]

>  <log10 of Kd>
-0.66

$$$$
>  <compound>
CCC[C@H]1C(=O)N[C@@H](C2CCCC2)C(=O)N(C)CC(=O)N(C)[C@H]2C/C=C\CCN(C2=O)[C@@H](Cc2ccc(C)cc2)C(=O)N(C)CC(=O)N[C@@H](CCc2cc(F)c(C(F)(F)F)c(F)c2)C(=O)N2CC3(CC3)C[C@H]2C(=O)N(C)C2(CCC2)C(=O)N(C)[C@@H](C(CC)CC)C(=O)N(C)[C@H](C(=O)N(C)C)CC(=O)N1C [PP3308]

>  <log10 of Kd>
-0.74

$$$$
>  <compound>
CCC[C@H]1C(=O)N[C@@H]([C@@H](C)CC)C(=O)N(C)CC(=O)N(C)[C@H]2C/C=C\CCN(C2=O)[C@@H](Cc2ccc(C(F)(F)F)cc2)C(=O)N(C)CC(=O)N[C@@H](CCc2ccc(C(F)(F)F)c(OC)c2)C(=O)N2CC3(CC3)C[C@H]2C(=O)NC2(CCC2)C(=O)N(C)[C@@H](C2CCCC2)C(=O)N(C)[C@H](C(=O)N(C)C)CC(=O)N1C [PP3438]

>  <log10 of Kd>
-1.21

$$$$
>  <compound>
CCO[C@@H]1C[C@H]2C(=O)OC3(CCC3)C(=O)N(C)[C@@H](C3CCCC3)C(=O)N(C)[C@H](C(=O)N(C)C)CC(=O)N(C)[C@@H]([C@@H](C)OC)C(=O)N[C@@H]([C@@H](C)CC)C(=O)N(C)CC(=O)N(C)[C@H]3C/C=C\CCN(C3=O)[C@@H](Cc3ccc(C(F)(F)F)cc3)C(=O)N(C)CC(=O)N[C@@H](CCc3ccc(C(F)(F)F)c(OC)c3)C(=O)N2C1 [PP3376]

>  <log10 of Kd>
-1.02

$$$$
>  <compound>
CCC[C@H]1C(=O)N[C@@H]([C@@H](C)CC)C(=O)N(C2CC2)CC(=O)N(C)[C@H]2C/C=C\CCN(C2=O)[C@@H](Cc2ccc(C(F)(F)F)cc2)C(=O)N(C)CC(=O)N[C@@H](CCc2ccc(C(F)(F)F)c(OC)c2)C(=O)N2C[C@H](OCC)C[C@H]2C(=O)OC2(CCC2)C(=O)N(C)[C@@H](C2CCCC2)C(=O)N(C)[C@H](C(=O)N(C)C)CC(=O)N1C [PP3369]

>  <log10 of Kd>
-0.07

$$$$

---

# System: human lung cancer strain NCI-H441
# Assay type: cell-based
measurement_type: IC50 (nM)

>  <molecule>
CCO[C@@H]1C[C@H]2C(=O)NC3(CC(C)(C)C3)C(=O)N(C)[C@@H](C(CC)CC)C(=O)N(C)[C@H](C(=O)N(C)C)CC(=O)N(C)[C@@H](C)C(=O)N[C@@H]([C@@H](C)CC)C(=O)N(C)CC(=O)N(C)[C@H]3C/C=C\CCN(C3=O)[C@@H](Cc3ccc(C)cc3)C(=O)N(C)CC(=O)N[C@@H](CCc3ccc(Cl)c(Cl)c3)C(=O)N2C1 [PP2186]

>  <measurement_type>
IC50

>  <recorded_result>
33.7

$$$$
>  <molecule>
CC[C@@H]1C[C@H]2C(=O)NC3(CCC3)C(=O)N(C)[C@@H](C3CCCC3)C(=O)N(C)[C@H](C(=O)N(C)C)CC(=O)N(C)[C@@H](CC(C)C)C(=O)N[C@@H]([C@@H](C)CC)C(=O)N(C)CC(=O)N(C)[C@H]3C/C=C\CCN(C3=O)[C@@H](Cc3ccc(C)cc3)C(=O)N(C)CC(=O)N[C@@H](CCc3cc(F)c(C(F)(F)F)c(F)c3)C(=O)N2C1 [PP2220]

>  <measurement_type>
IC50

>  <recorded_result>
32.1

$$$$
>  <molecule>
CCO[C@@H]1C[C@H]2C(=O)NC3(CCC3)C(=O)N(C)[C@@H](C3CCCC3)C(=O)N(C)[C@H](C)CC(=O)N(C)[C@@H](CC)C(=O)N[C@@H]([C@@H](C)CC)C(=O)N(C)CC(=O)N(C)[C@H]3C/C=C\CCN(C3=O)[C@@H](Cc3ccc(C(F)(F)F)cc3)C(=O)N(C)CC(=O)N[C@@H](CCc3cc(F)c(C(F)(F)F)c(F)c3)C(=O)N2C1 [PP1095]

>  <measurement_type>
IC50

>  <recorded_result>
14.9

$$$$
